# subject_of_test: URAT1 (Homo sapiens, UniProt Q96S37)
# Sequence (Q96S37 whole entry): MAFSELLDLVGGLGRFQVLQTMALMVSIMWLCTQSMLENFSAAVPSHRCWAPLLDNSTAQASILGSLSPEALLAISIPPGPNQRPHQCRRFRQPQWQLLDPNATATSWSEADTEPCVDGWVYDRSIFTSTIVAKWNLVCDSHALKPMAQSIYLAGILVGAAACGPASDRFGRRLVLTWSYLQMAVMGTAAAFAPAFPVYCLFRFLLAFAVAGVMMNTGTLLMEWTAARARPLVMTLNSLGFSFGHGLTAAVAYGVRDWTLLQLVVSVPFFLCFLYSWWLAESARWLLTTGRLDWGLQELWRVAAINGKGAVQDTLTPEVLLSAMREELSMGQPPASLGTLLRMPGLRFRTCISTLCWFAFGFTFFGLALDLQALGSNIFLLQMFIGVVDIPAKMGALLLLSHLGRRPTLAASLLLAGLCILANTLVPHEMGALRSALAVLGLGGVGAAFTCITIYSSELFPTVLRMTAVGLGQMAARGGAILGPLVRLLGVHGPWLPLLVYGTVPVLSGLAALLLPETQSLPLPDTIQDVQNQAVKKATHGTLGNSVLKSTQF
# experiment: URAT1 inhibitor activity, MDCK cells
# Format: cell-based
# Set-up: host or cells: MDCK
# study_conditions: URAT1 inhibition

cpd_smiles: Cc1nn(C)c2c1SCCN2C(=O)c1cc(Br)c(O)c(Br)c1
subject_of_test: URAT1 (Homo sapiens, UniProt Q96S37)
unit_info: nM
IC50: 189
//
cpd_smiles: Cn1ncc2c1N(C(=O)c1cc(Br)c(O)c(Br)c1)CC1(CC1)O2
subject_of_test: URAT1 (Homo sapiens, UniProt Q96S37)
unit_info: nM
IC50: 48
//
cpd_smiles: C[C@H]1CN(C(=O)c2cc(Br)c(O)c(Br)c2)c2c(cnn2C)O1
subject_of_test: URAT1 (Homo sapiens, UniProt Q96S37)
unit_info: nM
IC50: 93
//
cpd_smiles: Cc1nn(C)c2c1O[C@H](C)CN2C(=O)c1cc(Br)c(O)c(Br)c1
subject_of_test: URAT1 (Homo sapiens, UniProt Q96S37)
unit_info: nM
IC50: 37
//
cpd_smiles: Cn1ncc2c1N(C(=O)c1cc(Br)c(O)c(Br)c1)CC(C)(C)O2
subject_of_test: URAT1 (Homo sapiens, UniProt Q96S37)
unit_info: nM
IC50: 80

###

# subject_of_test: UniProt Q96S37
# experiment: URAT1 inhibitor activity, MDCK cells
# Format: cell-based
# Set-up: host or cells: MDCK
# study_conditions: URAT1 inhibition

compound: Cn1ncc2c1N(C(=O)c1cc(Cl)c(O)c(Cl)c1)CCO2 [Example 14]
unit_info: nM
IC50: 252

compound: Cc1nn(C)c2c1OC(C)(C)CN2C(=O)c1cc(Br)c(O)c(Br)c1 [Example 13]
unit_info: nM
IC50: 84

compound: Cc1nn(C)c2c1O[C@@H](C)CN2C(=O)c1cc(Br)c(O)c(Br)c1 [Example 15]
unit_info: nM
IC50: 126

compound: C[C@@H]1CN(C(=O)c2cc(Br)c(O)c(Br)c2)c2c(cnn2C)O1 [Example 1]
unit_info: nM
IC50: 25

compound: Cc1nn(C)c2c1OCCN2C(=O)c1cc(Br)c(O)c(Br)c1 [Example 10]
unit_info: nM
IC50: 85

compound: Cn1ncc2c1N(C(=O)c1cc(Br)c(O)c(Br)c1)CCO2 [Example 2]
unit_info: nM
IC50: 29

compound: Cc1nn(C)c2c1OC1(CC1)CN2C(=O)c1cc(Br)c(O)c(Br)c1 [Example 17]
unit_info: nM
IC50: 60
